Measured values drawn from patent US10189809B2 for this set.

target: soluble guanylate cyclase (sGC) (Homo sapiens (Human), UniProt Q02108+Q02153); test: sGC-HEK-cGMP assay run with SNP incubation (HEK WC assay); type: cell-based; details: read-out: HEK WC Assay (% Emax at 30 μM with 10 uM SNP)
Sequence (Q02153 whole entry): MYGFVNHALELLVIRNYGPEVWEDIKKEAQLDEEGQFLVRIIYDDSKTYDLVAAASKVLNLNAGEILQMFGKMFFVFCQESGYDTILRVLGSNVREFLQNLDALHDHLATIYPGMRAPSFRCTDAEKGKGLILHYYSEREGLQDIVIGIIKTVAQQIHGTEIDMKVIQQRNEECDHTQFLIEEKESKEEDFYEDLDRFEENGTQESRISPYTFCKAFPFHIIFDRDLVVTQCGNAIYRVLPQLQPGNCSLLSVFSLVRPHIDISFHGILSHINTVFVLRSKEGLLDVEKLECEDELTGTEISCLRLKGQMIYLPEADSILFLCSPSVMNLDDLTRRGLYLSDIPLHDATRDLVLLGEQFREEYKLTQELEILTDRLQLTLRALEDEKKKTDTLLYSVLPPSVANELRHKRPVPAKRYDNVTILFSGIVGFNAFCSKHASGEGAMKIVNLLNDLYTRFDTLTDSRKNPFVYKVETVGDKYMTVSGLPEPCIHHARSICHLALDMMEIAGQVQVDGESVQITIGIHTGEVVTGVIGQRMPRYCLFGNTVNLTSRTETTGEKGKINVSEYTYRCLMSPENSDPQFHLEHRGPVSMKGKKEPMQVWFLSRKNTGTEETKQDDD
Sequence (Q02108 whole entry): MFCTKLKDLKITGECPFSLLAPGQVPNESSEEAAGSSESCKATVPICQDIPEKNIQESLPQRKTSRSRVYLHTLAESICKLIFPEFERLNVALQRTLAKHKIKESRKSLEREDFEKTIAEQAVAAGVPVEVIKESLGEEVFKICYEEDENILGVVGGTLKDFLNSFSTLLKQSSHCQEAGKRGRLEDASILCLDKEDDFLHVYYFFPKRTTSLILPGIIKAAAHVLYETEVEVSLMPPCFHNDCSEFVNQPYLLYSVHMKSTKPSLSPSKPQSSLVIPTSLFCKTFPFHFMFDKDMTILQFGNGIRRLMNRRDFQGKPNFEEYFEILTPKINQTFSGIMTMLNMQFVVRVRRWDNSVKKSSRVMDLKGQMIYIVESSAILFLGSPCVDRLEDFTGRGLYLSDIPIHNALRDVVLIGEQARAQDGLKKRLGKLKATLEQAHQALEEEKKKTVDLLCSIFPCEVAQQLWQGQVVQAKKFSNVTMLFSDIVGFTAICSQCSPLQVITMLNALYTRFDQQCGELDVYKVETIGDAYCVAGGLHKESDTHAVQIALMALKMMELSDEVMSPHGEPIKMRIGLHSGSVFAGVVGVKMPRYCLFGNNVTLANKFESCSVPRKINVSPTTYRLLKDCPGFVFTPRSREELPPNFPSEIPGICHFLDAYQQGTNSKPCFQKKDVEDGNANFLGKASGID
Emax reference

# example entries with known answers
given_smiles=Fc1ccccc1Cn1nc(-c2ncccn2)cc1-c1ncco1 measurement_type=Emax assay_value="20 to 40%"
given_smiles=CC(C)(C)OC(=O)Nc1cnc(-c2cc(-c3ccon3)n(Cc3ccccc3F)n2)nc1O measurement_type=Emax assay_value="20 to 40%"
given_smiles=Oc1ccc(-c2cc(-c3ccccn3)nn2Cc2ccccc2F)cc1 measurement_type=Emax assay_value="0 to 10%"

Output measured Emax for this item: "CC(C)(O)C(=O)Nc1cnc(-c2cc(-c3ccon3)n(Cc3ccccc3F)n2)nc1N"
40 to 60%

* * *

Emax reference
target: soluble guanylate cyclase (sGC) (Homo sapiens (Human), UniProt Q02108+Q02153); assay: sGC-HEK-cGMP assay run with SNP incubation (HEK WC assay); type: cell-based; conditions: read-out: HEK WC Assay (% Emax at 30 μM with 10 uM SNP)

compound="Nc1nc(-c2cc(-c3ccon3)n(Cc3ccccc3F)n2)ncc1NCc1ccccc1 [Compound I-223]" assay_value="10 to 20%"
compound="Nc1nc(-c2cc(-c3ccon3)n(Cc3ccccc3F)n2)ncc1N=C(c1ccccc1)c1ccccc1 [Compound I-123]" assay_value="20 to 40%"
compound="CC(C)(C(=O)Nc1cnc(-c2cc(-c3ccon3)n(Cc3ccccc3F)n2)nc1N)c1ccccc1 [Compound I-236]" assay_value="60 to 80%"
compound="CC(C)(C)OC(=O)Nc1cnc(-c2cc(-c3ncco3)n(Cc3ccccc3F)n2)nc1N [Compound I-148]" assay_value="100 to 120%"
compound="COc1ccccc1C(=O)Nc1cnc(-c2cc(-c3ccon3)n(Cc3ccccc3F)n2)nc1N [Compound I-166]" assay_value="100 to 120%"
compound="CC(C)(C)C(=O)Nc1cnc(-c2cc(-c3ncco3)n(Cc3ccccc3F)n2)nc1N [Compound I-191]" assay_value="80 to 100%"

Output measured Emax for this item: Nc1nc(-c2cc(-c3ccon3)n(Cc3ccccc3F)n2)ncc1NC(=O)/C=C/c1ccccc1 [Compound I-239]
60 to 80%

Output measured Emax for this item: Cc1ccc(C(=O)Nc2cnc(-c3cc(-c4ccon4)n(Cc4ccccc4F)n3)nc2N)cc1 [Compound I-181]
> 120%

Output measured Emax for this item: Fc1ccccc1Cn1nc(-c2ncccn2)cc1C1=NCCO1 [Compound I-290]
20 to 40%

Output measured Emax for this item: Nc1nc(-c2cc(-c3ccon3)n(Cc3ccccc3F)n2)ncc1NC(=O)c1cccc(O)n1 [Compound I-193]
60 to 80%

Output measured Emax for this item: Fc1ccccc1Cn1nc(-c2ncccn2)cc1-c1ccco1 [Compound I-306]
40 to 60%

Output measured Emax for this item: Fc1ccccc1Cn1nc(-c2ncc(F)c(S)n2)cc1-c1ccon1 [Compound I-267]
80 to 100%

Output measured Emax for this item: O=S(=O)(c1ccccc1)c1cnc(-c2cc(-c3ncco3)n(Cc3ccccc3F)n2)nc1O [Compound I-271]
80 to 100%

Output measured Emax for this item: Nc1nc(-c2cc(-c3ccon3)n(Cc3ccccc3F)n2)ncc1NC(=O)C1CCCCC1 [Compound I-157]
80 to 100%

* * *

Molecular target: soluble guanylate cyclase (sGC) (Homo sapiens (Human), UniProt Q02108+Q02153)
Test: sGC-HEK-cGMP assay run with SNP incubation (HEK WC assay)
Assay type: cell-based
Details: read-out: HEK WC Assay (% Emax at 10 μM with 10 uM SNP)
Protocol: Human embryonic kidney cells (HEK293), endogenously expressing soluble guanylate cyclase (sGC), were used to evaluate the activity of test compounds. Compounds stimulating the sGC receptor should cause an increase in the intracellular concentration of cGMP. […] EC50 values were calculated from concentration-response curves generated with GraphPad Prism Software.
MEASUREMENT_TYPE: Emax

# example entries with known answers
molecule="CC(C)(C(=O)Nc1cnc(-c2cc(-c3ccon3)n(Cc3ccccc3F)n2)nc1N)c1ccccc1 [Compound I-236]" measurement_type=Emax assay_value="60 to 80%"
molecule="Oc1ccccc1Cn1nc(-c2ncccn2)cc1-c1ccon1 [Compound I-207]" measurement_type=Emax assay_value="0 to 10%"
molecule="Nc1cnc(-c2cc(-c3ccon3)n(Cc3ccccc3F)n2)nc1 [Compound I-262]" measurement_type=Emax assay_value="60 to 80%"

Give Emax only, for O=S(=O)(c1ccc(F)cc1)c1cnc(-c2cc(-c3ccon3)n(Cc3ccccc3F)n2)nc1O [Compound I-241] , using soluble guanylate cyclase (sGC) (Homo sapiens (Human), UniProt Q02108+Q02153) data.
60 to 80%

* * *

Emax reference
molecular target: soluble guanylate cyclase (sGC) (Homo sapiens (Human), UniProt Q02108+Q02153); test: sGC-HEK-cGMP assay run with SNP incubation (HEK WC assay); format: cell-based; details: read-out: HEK WC Assay (% Emax at 30 μM with 10 uM SNP)

Output measured Emax for this item: "COc1cccc(C(=O)Nc2cnc(-c3cc(-c4ccon4)n(Cc4ccccc4F)n3)nc2N)c1"
100 to 120%

* * *

biological target: Human soluble guanylate cyclase enzyme (hsGC) (Homo sapiens (Human), UniProt Q02108+Q02153); test: Purified human sGC enzyme activity assay; assay type: biochemical; conditions: 10 μM compound
MEASUREMENT_TYPE: sGC Enzyme (specific activity at 10 μM)

given_smiles=Cc1nnc(-c2cc(-c3ccccn3)nn2Cc2ccccc2F)o1 assay_value="C (C = 100 to <200)"
given_smiles=COc1ccc(-c2cc(-c3ccccn3)nn2Cc2ccccc2F)cc1 assay_value="C (C = 100 to <200)"
given_smiles=Fc1ccccc1Cn1nc(-c2ncccn2)cc1-c1ccccc1 assay_value="B (B = 50 to <100)"
given_smiles=Nc1ccnc(-c2cc(-c3ccccn3)nn2Cc2ccccc2F)n1 assay_value="B (B = 50 to <100)"
given_smiles=COc1cccc(-c2cc(-c3ccccn3)nn2Cc2ccccc2F)n1 assay_value="C (C = 100 to <200)"

Output measured sGC Enzyme (specific activity at 10 μM) for this item: "COc1cccc(-c2cc(-c3ccccn3)nn2Cc2ccccc2F)c1"
C (C = 100 to <200)

Output measured sGC Enzyme (specific activity at 10 μM) for this item: "Cc1ccc(-c2cc(-c3ccccn3)nn2Cc2ccccc2F)nc1"
B (B = 50 to <100)

Output measured sGC Enzyme (specific activity at 10 μM) for this item: "Fc1cccc(-c2cc(-c3ccccn3)nn2Cc2ccccc2F)c1"
C (C = 100 to <200)

Output measured sGC Enzyme (specific activity at 10 μM) for this item: "Fc1ccccc1Cn1nc(-c2ccccn2)cc1-c1nnco1"
C (C = 100 to <200)

Output measured sGC Enzyme (specific activity at 10 μM) for this item: "Cc1cc(-c2cc(-c3ccccn3)nn2Cc2ccccc2F)c(C)s1"
C (C = 100 to <200)

Output measured sGC Enzyme (specific activity at 10 μM) for this item: "Fc1ccccc1Cn1nc(-c2ncccn2)cc1-c1ccccc1F"
B (B = 50 to <100)

Output measured sGC Enzyme (specific activity at 10 μM) for this item: "COc1ccccc1-c1cc(-c2ncccn2)nn1Cc1ccccc1F"
C (C = 100 to <200)

Output measured sGC Enzyme (specific activity at 10 μM) for this item: "Fc1ccccc1Cn1nc(-c2ccccn2)cc1-c1ccncn1"
C (C = 100 to <200)

* * *

target: soluble guanylate cyclase (sGC) (Homo sapiens (Human), UniProt Q02108+Q02153); experiment: sGC-HEK-cGMP assay run with SNP incubation (HEK WC assay); assay type: cell-based; details: in the presence of 10 uM SNP
pEC50: −log10 of the molar value.
MEASUREMENT_TYPE: pEC50

# example entries with known answers
compound="CC1(C(=O)Nc2cnc(-c3cc(-c4ccon4)n(Cc4ccccc4F)n3)nc2N)CC1(Cl)Cl (stereo not shown) [Compound I-260]" measurement_type=pEC50 assay_value="> 4.70"
compound="Nc1nc(-c2cc(-c3ccon3)n(Cc3ccccc3F)n2)ncc1NC(=O)c1cccc(O)n1 [Compound I-193]" measurement_type=pEC50 assay_value="> 4.70"
compound="Nc1nc(-c2cc(-c3ccon3)n(Cc3ccccc3F)n2)ncc1NC(=O)c1ccon1 [Compound I-175]" measurement_type=pEC50 assay_value="> 4.70"
compound="CN(C(=O)c1ccccc1)c1cnc(-c2cc(-c3ccon3)n(Cc3ccccc3F)n2)nc1N [Compound I-228]" measurement_type=pEC50 assay_value="4.40 to 4.70"
compound="Nc1nc(-c2cc(-c3ccon3)n(Cc3ccccc3F)n2)ncc1NC(=O)c1cccnc1 [Compound I-179]" measurement_type=pEC50 assay_value="> 4.70"

Now look at this one.
Give pEC50 only, for Nc1nc(-c2cc(-c3ncco3)n(Cc3ccccc3F)n2)ncc1F [Compound I-147] , using soluble guanylate cyclase (sGC) (Homo sapiens (Human), UniProt Q02108+Q02153) data.
> 4.70
